B1: Endo-1,4-beta-xylanase A, P26514 (parent)
chain: MGSYALPRSGVRRSIRVLLLALVVGVLGTATALIAPPGAHAAESTLGAAAAQSGRYFGTAIASGRLSDSTYTSIAGREFNMVTAENEMKIDATEPQRGQFNFSSADRVYNWAVQNGKQVRGHTLAWHSQQPGWMQSLSGSALRQAMIDHINGVMAHYKGKIVQWDVVNEAFADGSSGARRDSNLQRSGNDWIEVAFRTARAADPSAKLCYNDYNVENWTWAKTQAMYNMVRDFKQRGVPIDCVGFQSHFNSGSPYNSNFRTTLQNFAALGVDVAITELDIQGAPASTYANVTNDCLAVSRCLGITVWGVRDSDSWRSEQTPLLFNNDGSKKAAYTAVLDALNGGDSSEPPADGGQIKGVGSGRCLDVPDASTSDGTQLQLWDCHSGTNQQWAATDAGELRVYGDKCLDAAGTSNGSKVQIYSCWGGDNQKWRLNSDGSVVGVQSGLCLDAVGNGTANGTLIQLYTCSNGSNQRWTRT

- Variants of: B1
- condition_notes: Streptomyces lividans; pH 6; Thermal; CD; sodium phosphate 10 mM; structure 1XAS; whole UniProt chain shown
For each record, write down the corresponding Tm.
Please reply with the bare figure in °C and do not write the unit itself.

Q. Quick one: Tm of Y213S ?
A. 69.6

Q. Could you share which Tm value was measured for W126H ?
A. 67

Q. Item under review: W315A . Reported Tm?
A. 72.1

Q. # Tm lookup, item W315H
A. 68.2

Q. Look up Tm for this variant: W307F
A. 64.7

Q. Dear colleague, I am looking for the recorded Tm of the following variant: W307H
A. 60.7

Q. Would you mind telling me what Tm value was observed for W126A ?
A. 70

Q. Suppose we examine the variant Y213A ; what Tm value has been reported?
A. 63

Q. Given the variant W126F , what is its reported Tm?
A. 64

Q. Need Tm, item W315F
A. 68.8

Q. For the variant W307A , what Tm is on record?
A. 63.3

Q. Look up Tm: Y213F
A. 67.1
